Biological target: GcoA (Amycolatopsis sp., UniProt P0DPQ7)
Construct: GST (N, cleaved yes); made in house; host or cells: E. coli Rosetta 2 (DE3)
Sequence (P0DPQ7 1-407): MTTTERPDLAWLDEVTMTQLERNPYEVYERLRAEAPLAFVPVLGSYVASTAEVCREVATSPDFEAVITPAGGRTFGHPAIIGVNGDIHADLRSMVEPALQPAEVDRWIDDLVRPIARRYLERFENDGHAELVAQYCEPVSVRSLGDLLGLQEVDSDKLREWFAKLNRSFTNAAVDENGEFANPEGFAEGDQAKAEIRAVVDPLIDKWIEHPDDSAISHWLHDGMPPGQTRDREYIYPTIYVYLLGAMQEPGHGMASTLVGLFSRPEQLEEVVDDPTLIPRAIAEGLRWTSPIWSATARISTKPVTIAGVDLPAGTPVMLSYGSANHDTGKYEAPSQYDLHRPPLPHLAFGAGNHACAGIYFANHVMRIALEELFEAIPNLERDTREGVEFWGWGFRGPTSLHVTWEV
Assay: Determination of substrate dissociation constants with GcoA (UV/vis spectral shift titration; fluorescence quenching for vanillin)
Type: binding
Settings: 1–6 μM GcoA, 25 °C, 25 mM HEPES, 50 mM NaCl, pH 7.5; read-out: Compound KD
Entries and their measured pKd follow.
pKd is defined as minus the log10 of a concentration measured in mol/L.

# Structure Smiles String, Target Desc, Data Value
data = [
    ("COc1ccccc1O", "GcoA (Amycolatopsis sp., UniProt P0DPQ7)", 8.22),
    ("COc1cccc(OC)c1O", "GcoA (Amycolatopsis sp., UniProt P0DPQ7)", 5.55),
    ("COc1cccc(O)c1O", "GcoA (Amycolatopsis sp., UniProt P0DPQ7)", 5.43),
]

Answer briefly: pKd recorded on GcoA (Amycolatopsis sp., UniProt P0DPQ7) for COc1ccccc1C
6.00

Answer briefly: pKd recorded on GcoA (Amycolatopsis sp., UniProt P0DPQ7) for CCOc1ccccc1O
7.15

Answer briefly: pKd recorded on GcoA (Amycolatopsis sp., UniProt P0DPQ7) for COc1ccccc1
5.77

* * *

Target: GcoA (Amycolatopsis sp., UniProt P0DPQ7)
Construct: GST (N, cleaved yes); made in house; host or cells: E. coli Rosetta 2 (DE3)
Sequence (P0DPQ7 1-407): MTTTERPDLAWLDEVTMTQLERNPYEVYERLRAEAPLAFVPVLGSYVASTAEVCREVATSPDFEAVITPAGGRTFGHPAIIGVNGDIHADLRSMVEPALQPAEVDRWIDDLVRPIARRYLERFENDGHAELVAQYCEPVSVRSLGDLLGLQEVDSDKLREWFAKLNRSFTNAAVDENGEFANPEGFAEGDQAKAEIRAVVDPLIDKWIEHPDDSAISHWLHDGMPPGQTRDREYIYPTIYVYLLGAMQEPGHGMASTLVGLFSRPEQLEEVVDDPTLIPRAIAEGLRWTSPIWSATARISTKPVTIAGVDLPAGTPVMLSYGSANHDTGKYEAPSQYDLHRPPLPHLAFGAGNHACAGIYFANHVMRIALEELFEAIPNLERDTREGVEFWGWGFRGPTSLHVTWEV
Experiment: Determination of substrate dissociation constants with GcoA (UV/vis spectral shift titration; fluorescence quenching for vanillin)
Format: binding
Measured Parameter: Kd (µM)
Note: unit µM is implicit; provide only the numeric part.

Return the recorded Kd value; entry: COc1cc(C=O)ccc1O
37
